Entries and their Ratio
ASSAY_METHOD_TEXT: Selectivity ratio of alpha1 beta-3 gamma2 GABA A / BzR and alpha5 beta-3 gamma2 GABA A / BzR
REPORTED_METRIC: Ratio

In [3]: df
Out[3]:
                                item_smiles  experimental_result
0  CCN(CC)Cc1ncn2c1CN(C)C(=O)c1cc(Cl)ccc1-2                  3.2
1  C#Cc1ccc2c(c1)C(=O)N1CCC[C@H]1c1c(C(=O)OCC)ncn1-2                   45
2  CCCCC(=O)c1ncn2c1CN(C)C(=O)c1cc(Cl)ccc1-2                  9.6
3  CN1Cc2c(C(=O)OC(C)(C)C)ncn2-c2ccc([N+](=O)[O-])cc2C1=O                  3.7
4  C#Cc1ccc2c(c1)C(=O)N(C)Cc1c(C(=O)OC(C)(C)C)ncn1-2                 67.3

From: ChEMBL document CHEMBL1132940
